- experiment_summary: Toxicity in human erythrocytes assessed as hemolytic activity after 4 hrs
- Assay type: cell-based
- study_conditions: erythrocyte
Residues, ends and D or L forms follow the SMILES beside them.
reported_endpoint: HD100 (µM)
Give bare numbers, in µM.

compound="CC(C)C[C@@H]1NC(=O)[C@H](CCCCN)NC(=O)[C@H](C(C)C)NC(=O)[C@@H]2CCCN2C(=O)[C@@H](Cc2ccc(O)cc2)NC(=O)[C@H](CC(C)C)NC(=O)[C@H](CCCCN)NC(=O)[C@H](C(C)C)NC(=O)[C@H](CCCCN)NC(=O)[C@H](CC(C)C)NC(=O)[C@@H]2CCCN2C(=O)[C@@H](Cc2ccc(O)cc2)NC(=O)[C@H](C(C)C)NC(=O)[C@@H](CCCCN)NC1=O (HELM PEPTIDE1{K.L.[dK].V.[dY].P.L.K.V.K.L.[dY].P.V}$PEPTIDE1,PEPTIDE1,1:R1-14:R2$$$V2.0)" units_label=µM reported=500
compound=CC(C)C[C@@H]1NC(=O)[C@H](CCCN)NC(=O)[C@H](C(C)C)NC(=O)[C@@H]2CCCN2C(=O)[C@@H](Cc2ccccc2)NC(=O)[C@H](CC(C)C)NC(=O)[C@H](CCCN)NC(=O)[C@H](C(C)C)NC(=O)[C@H](CCCN)NC(=O)[C@H](CC(C)C)NC(=O)[C@@H]2O[C@H](CNC(=O)[C@H](C(C)C)NC(=O)[C@H](CCCN)NC1=O)[C@@H](O)[C@@H]2O units_label=µM reported=31.3
compound=CC(C)C[C@@H]1NC(=O)[C@H](CCCN)NC(=O)[C@H](C(C)C)NC(=O)[C@@H]2CCCN2C(=O)[C@@H](Cc2ccccc2)NC(=O)[C@H](CC(C)C)NC(=O)[C@H](CCCN)NC(=O)[C@H](C(C)C)NC(=O)[C@H](CCCN)NC(=O)[C@H](CC(C)C)NC(=O)[C@@H]2CCCN2C(=O)[C@@H](Cc2ccccc2)NC(=O)[C@H](C(C)C)NC(=O)[C@H](CCCN)NC1=O units_label=µM reported=3.9
compound=CC(C)C[C@@H]1NC(=O)[C@H](CCCN)NC(=O)[C@H](C(C)C)NC(=O)[C@@H]2CCCN2C(=O)[C@@H](Cc2ccccc2)NC(=O)[C@H](CC(C)C)NC(=O)[C@H](CCCN)NC(=O)[C@H](C(C)C)NC(=O)[C@H](CCCN)NC(=O)[C@H](CC(C)C)NC(=O)[C@@H]2CCCN2C(=O)[C@@H](Cc2ccccc2)NC(=O)[C@H](C(C)C)NC(=O)[C@@H](CCCN)NC1=O units_label=µM reported=125

Now for a further compound.
Could you share which HD100 value was measured for CC(C)C[C@@H]1NC(=O)[C@H](CCCN)NC(=O)[C@H](C(C)C)NC(=O)[C@@H]2CCCN2C(=O)[C@@H](Cc2ccccc2)NC(=O)[C@H](CC(C)C)NC(=O)[C@H](CCCN)NC(=O)[C@H](C(C)C)NC(=O)[C@@H]2CCCN2C(=O)[C@@H](Cc2ccccc2)NC1=O [GRAMICIDIN S] (HELM PEPTIDE1{L.[dF].P.V.[Orn].L.[dF].P.V.[Orn]}$PEPTIDE1,PEPTIDE1,1:R1-10:R2$$$V2.0) ?
62.5
